Test system: L1210 leukemia ip in BDF1 mice, survival T/C
test_details: NCI In Vivo Anticancer Drug Screen. Data for tumor model L1210 Leukemia (intraperitoneal) in B6D2F1 (BDF1) mice
measurement_parameters: endpoint: mean survival time; dose: 200.0 mg/kg/injection; schedule: Q04DX003 (ip); vehicle: saline; higher = longer survival
Toxic doses and inconclusive results are not listed.
quantity_measured: T/C

Answered examples (10):
[
  {
    "compound": "C/C(=N\\O)C(=O)c1ccccc1",
    "T/C": "107 % of control"
  },
  {
    "compound": "COCCOC(=O)CCCCC(=O)OCCOC",
    "T/C": "100 % of control"
  },
  {
    "compound": "CC(C)N(CCN)C(C)C",
    "T/C": "97 % of control"
  },
  {
    "compound": "CC(C)CC(NC(=O)CN)C(=O)O (stereo unspecified)",
    "T/C": "104 % of control"
  },
  {
    "compound": "N#C/C(=C\\c1cc(Cl)cc(Cl)c1O)C(/C(C#N)=C/c1cc(Cl)cc(Cl)c1O)c1ccc2c(c1)OCO2 (stereo unspecified)",
    "T/C": "100 % of control"
  },
  {
    "compound": "COC(=O)C1(C)CCC(c2ccc(OC)cc2)C(CC(=O)O)C1=O (stereo unspecified)",
    "T/C": "98 % of control"
  },
  {
    "compound": "CN=C1N[N+]2=C(C)CCCC2(C)S1 (stereo unspecified)",
    "T/C": "89 % of control"
  },
  {
    "compound": "NCC(O)c1ccc(O)cc1 (stereo unspecified)",
    "T/C": "98 % of control"
  },
  {
    "compound": "C=CCSCCC",
    "T/C": "104 % of control"
  },
  {
    "compound": "CC(=O)Nc1ccc(C(=O)O)c(O)c1",
    "T/C": "105 % of control"
  }
]

Lookup result for S=C(S)N1CCN(C(=S)S)CC1 ; measured T/C: 97 % of control

get_value(item= CCC[N+](C)(C)CCOC(=O)C1C2CC3OC(=O)C1C3C2 (stereo unspecified) , readout=T/C) returns 95 % of control

Data point: Nc1cc(=O)[nH][nH]1 ; T/C = 107 % of control

// provenance: PubChem BioAssay AID248
